B1: Hairpin Ribozyme (parent)
chain: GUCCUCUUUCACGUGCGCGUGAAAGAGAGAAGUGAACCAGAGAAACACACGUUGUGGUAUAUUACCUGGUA

- Variants of: B1
- protocol: self-cleavage, relative activity (ratio to wild type); higher = more cleavage; co-transcriptional
Listed here: items and their measured self-cleavage.
In your answer, state the number alone without any accompanying words.

Here are 2 variants together with their reported answers.
>  <mutant-label>
C18A C48A

>  <self-cleavage>
0.14

$$$$
>  <mutant-label>
U53A U70A

>  <self-cleavage>
0.987

$$$$

Field: next variant
Query: Which self-cleavage is reported for this variant? U14C A26G
Reply: 0.919
